All figures here come from PubChem BioAssay (NCATS).

experiment: Viability qHTS for spleen associated tyrosine kinase inhibitor (SYKi) naive MV4-11 cells (AID 1963823); conditions: MV4-11 AML viability, CellTiter-Glo luminescence, 72 h; series mostly up to 45 µM; further: nearly all actives have a fitted effect of over 40% in size
Results filed as inconclusive are left out. The source made the active and inactive calls. The call rests on the fitted dose curve; in most records, active means well fitted cell-killing curve with a large enough effect; inconclusive means small, poorly fitted or top-dose-only effect, or effect the other way; inactive means no such curve, though single readings can be large or run the other way.
Bench note: report the call from active, inactive

{"compound": "C[C@@]1(C(=O)Nc2ccc(F)nc2)CCCN1c1nc(Nc2cc(C3CC3)[nH]n2)c2cccn2n1", "answer-label": "active"}
{"compound": "COC(=O)N(C)c1c(N)nc(-c2nn(Cc3ccccc3F)c3ncccc23)nc1N", "answer-label": "inactive"}
{"compound": "CCC/C=C/c1cc2c(C=O)c(O)c(CC=C(C)C)cc2o1", "answer-label": "active"}
{"compound": "CC(=O)NCCNc1cc(Cl)nn2c(-c3cccc(S(=O)(=O)N(C)C)c3)c(C)nc12", "answer-label": "active"}
{"compound": "COC1C(CO)OC(n2cnc3c(=O)[nH]cnc32)C1O (stereo not drawn)", "answer-label": "inactive"}

Inquiry: Each compound tested received a call. Report the one for C=C1[C@H](OC(C)=O)[C@H]2[C@@H](OC(C)=O)C(C)C[C@]2(OC(C)=O)C(=O)[C@H](C)/C=C/C(C)(C)C(=O)[C@H](OC(=O)C(C)C)[C@H]1OC(C)=O (stereo partly drawn) .
Reply text: inactive

Inquiry: Each compound tested received a call. Report the one for Cc1cc(-c2ncc(-c3cccnc3)cc2/C=C/c2ccccc2)cnc1-c1cccnc1 .
Reply text: inactive

Inquiry: Each compound tested received a call. Report the one for Cc1cc(=O)oc2cc(NC(=O)[C@H](CCC(=O)O)NC(=O)[C@H](CC(C)C)NC(=O)[C@H](CC(C)C)NC(=O)OCc3ccccc3)ccc12 .
Reply text: inactive
